Tested on: HL-60(TB) leukemia
assay-procedure: NCI tumour cell line growth inhibition, 48 h
Where a SMILES comes first, the peptide text is derived from it. The star is where a group is joined. Fmoc = O=C(OCC1c2ccccc2-c2ccccc21)*; Boc = CC(C)(C)OC(=O)*
In this section we review reported TGI values for a set of molecules.

molecule	TGI
COc1ccc2nc3ccc(OC)cc3c(SCc3ccccc3)c2c1	> 100 µM
COc1cc(-c2c(C#N)c(N)nc(N3CCOCC3)c2C#N)cc(OC)c1OC	> 100 µM
CC(=O)OC1CC2C3CCC4C[C@@H](NC(=O)C=C(C)C)CC[C@]4(C)C3CC[C@]2(C)[C@H]1C(C)N(C)C (some centres not stated)	5.46 µM
CC(C)(C)OC(=O)NCCCCC(NC(=O)C(Cc1c[nH]c2ccccc12)NC(=O)OCC1c2ccccc2-c2ccccc21)C(=O)N1CCCC1C(=O)NCC(N)=O (configuration not stated) (Fmoc-WK(Boc)PG-NH2; configuration not given here)	> 100 µM
O=C1c2ccccc2-c2c1c1ccccc1c(=O)n2CCCNCCCCNCCCN1C(=O)c2ccccc2C2C(=O)c3ccccc3C21 (configuration not stated)	1.17 µM
NCOC(=O)Cc1ccc(Br)cc1	> 100 µM
CC(=O)Oc1ccc(/C(=C(\C)c2ccc(Cl)cc2)c2ccc(OCCN3CCCCC3)cc2)cc1	4.35 µM
COC(=O)C1(C(=O)OC)N=C(C)OC1/C=C/c1ccccc1 (configuration not stated)	> 100 µM
C1CC[C@H]2SSC3CCCC[C@H]3SSC2C1 (some centres not stated)	> 100 µM
Cc1ccc(C)c(/C=C2\CN(C(=O)OC(C)(C)C)C/C(=C\c3cc(C)ccc3C)C2=O)c1	> 100 µM
COc1ccc(C2C=C(c3ccc4c(c3)OCO4)Oc3c2c(=O)oc2ccccc32)cc1OC (configuration not stated)	0.6 µM
CCCCCCCCCCCCCCCCC(=O)O.CCCCCCCCCCCCCCCCCC(=O)O.CCCCCCCCCCCCCCCCCC(=O)O.CCCCCCCCCCCCCCCCCC(=O)O.CCCCCCCCCCCCCCCCCC(=O)O.CO[CH-]OC12COC1CC(O)C1(C)C(O)C(OC(C)O)C3=C(C)C(OC(=O)C(O)C([NH-])c4ccccc4)CC(O)(C(OC(=O)c4ccccc4)C21)C3(C)C.[Cu+].[Zn].[Zn].[Zn].[Zn].[Zn] (configuration not stated)	> 25 µM
O=C(CNC(c1ccccc1)(c1ccccc1)c1ccccc1)NC1CCCCC1NC(=O)CNC(c1ccccc1)(c1ccccc1)c1ccccc1 (configuration not stated)	> 100 µM
CSc1nc2c(ncn2C2OCC(O)C(O)C2O)c(=O)n1C (configuration not stated)	> 100 µM
N#C[Se]CCCNS(=O)(=O)C1CC2C=CC1C2 (configuration not stated)	1.31 µM
CSc1ccc(/C=C2\N=C(c3ccccc3)N(c3nc4cc(C)c(C)cc4s3)C2=O)cc1	86.3 µM
O=C(O)CC(Sc1ccccc1)c1ccccc1 (configuration not stated)	> 100 µM

----------
Test system: KM20L2 colon
assay-procedure: NCI tumour cell line growth inhibition, 48 h
In this section we review reported TGI values for a set of compounds.
parameter-measured: TGI

> print(dat)
                                   compound  parameter.measured      value
1  c1ccc2c(c1)N=C(c1cccc3ccccc13)CC(c1ccc3c(c1)OCO3)S2 (centres undefined)                 TGI   > 100 µM
2                  CN1CCN(C)C12C=CC=CC21CC1                 TGI   > 100 µM
3  NN1C(=O)C(CCO)S/C1=N/N=C1/SC(CCO)C(=O)N1N (centres undefined)                 TGI   > 100 µM
4  CC1=CC(N2C(=O)C(C)=CC2O)NC1=O (centres undefined)                 TGI   > 100 µM
5  C=C[C@]1(C)CCC2=C(CCC3C2(C)CCC[C@@]3(C)COC(C)=O)C1 (some centres undefined)                 TGI    33.5 µM
6  COc1ccc(C2C(C)C(=O)C(C)C(c3ccc(OC)cc3)N2N=O)cc1 (centres undefined)                 TGI  > 1000 µM
7  O=C(O)C12CCCCC1CCCC2 (centres undefined)                 TGI   > 100 µM
8  Cc1ccc(S(=O)OCC23CC4CC(CC(C4)C2)C3)cc1 (centres undefined)                 TGI   > 100 µM
9  CCN(CC)Cc1c(/C=C\c2cc(OC)c(OC)c(OC)c2)ccc(OC)c1O                 TGI    11.9 µM

----------
Test system: BT-549 breast
assay-procedure: NCI tumour cell line growth inhibition, 48 h; in the data active = GI50 below about 0.43 µM; inactive = the rest
Outcome codes: YES = active, NO = inactive

molecule	test-system	cat
O=S(=O)(/N=c1/scc(-c2ccccc2)n1-c1ccccc1)c1ccc(N2N=C3c4ccccc4CC3C2c2cccs2)cc1 (stereo not drawn)	BT-549 breast	NO
Clc1ccc(-c2cc(-c3ccccc3)nc(NCCNc3ccnc4cc(Cl)ccc34)n2)cc1	BT-549 breast	NO
COc1ccc(/C=C/C(=O)c2ccc(OC)c(OC)c2)cc1O	BT-549 breast	NO
COC1=CC(c2ccc[nH]2)=N/C1=C\c1[nH]c(C)c(C(=O)CCCCC(=O)Oc2ccc3c(c2)CCC2C3CC[C@]3(C)[C@@H](O)CC[C@@H]23)c1C (stereo partly drawn)	BT-549 breast	NO
COc1cc(/C=C/C(=O)N2CCN(C(=O)c3cc(OC)c(OC)c(OC)c3)CC2)ccc1OCCCOc1cc2c(cc1OC)C(=O)N1CCC[C@H]1C=N2	BT-549 breast	YES
CCCCCCCCC(=O)OCC(CS[As](C)C)OC(=O)CCCCCCCC (stereo not drawn)	BT-549 breast	NO
COc1cc([N+](=O)[O-])c(OC)cc1-c1nc2sc(Cl)cn2c1/C=N/NC1=NCCN1	BT-549 breast	NO
O=c1oc2ccc(Br)cc2c(=O)n1-c1ccc(I)cc1F	BT-549 breast	YES

----------
Test system: SN12C renal
assay-procedure: NCI tumour cell line growth inhibition, 48 h; in the data active = GI50 below about 0.43 µM; inactive = the rest
Outcome codes: 1 for active, -1 for inactive

compound	test-system	cat
CCCCCCCCCCCCCCCCC(=O)O.CCCCCCCCCCCCCCCCCC(=O)O.CCCCCCCCCCCCCCCCCC(=O)O.CCCCCCCCCCCCCCCCCC(=O)O.CCCCCCCCCCCCCCCCCC(=O)O.CO[CH-]OC12COC1CC(O)C1(C)C(O)C(OC(C)O)C3=C(C)C(OC(=O)C(O)C([NH-])c4ccccc4)CC(O)(C(OC(=O)c4ccccc4)C21)C3(C)C.[Cu+].[Zn].[Zn].[Zn].[Zn].[Zn] (stereo not drawn)	SN12C renal	1
CC1(C)[C@@H](OC(=O)CCC(=O)O)CC[C@]2(C)[C@H]3C(=O)C=C4[C@@H]5C[C@@](C)(C(=O)O)CC[C@]5(C)CC[C@@]4(C)[C@]3(C)CC[C@@H]12	SN12C renal	-1
COc1cc(/C=C/C(=O)N2CCN(C(=O)c3cc(OC)c(OC)c(OC)c3)CC2)ccc1OCCCOc1cc2c(cc1OC)C(=O)N1CCC[C@H]1C=N2	SN12C renal	1

----------
Tested on: CAKI-1 renal
assay-procedure: NCI tumour cell line growth inhibition, 48 h
Kindly return Yes if reported TGI is no lower than 20 µM; return No if it is lower.

compound	cat
COC(=O)/C=C/C1(O)C=CC(=O)C=C1	No
CN(Cc1cc(Cl)cc(Cl)c1O)Cc1c(O)ccc2ccccc12	Yes
CC1(C)[C@@H](OC(=O)CCC(=O)O)CC[C@]2(C)[C@H]3C(=O)C=C4[C@@H]5C[C@@](C)(C(=O)O)CC[C@]5(C)CC[C@@]4(C)[C@]3(C)CC[C@@H]12	Yes
CC(=O)NC(Cc1ccsc1)C(=O)O (stereo not drawn)	Yes
COc1ccc2nc3ccc(OC)cc3c(SCc3ccccc3)c2c1	Yes
CN1C/C=C/CCOc2cccc(c2)-c2ccnc(n2)Nc2cccc(c2)C1	No
CC(C)(C)C1=CC(=C2C(=O)C(=O)c3ccccc3C2=O)C=C(C(C)(C)C)C1=O	Yes
O=C1c2cc([N+](=O)[O-])ccc2-c2ccc3c4ccc5c6c(ccc(c7ccc1c2c73)c64)C(=O)c1cc([N+](=O)[O-])ccc1-5	Yes
O=C1OCC2=C1C(c1ccc(Cl)c(Cl)c1)c1cc3c(cc1N2CCO)CCC3 (stereo not drawn)	No
O=C1CC(=O)NC(=NNS(=O)(=O)c2ccccc2)N1	Yes
COc1ccc(/C=C2\C=C(c3ccccc3)N(CCc3ccccc3)C2=O)cc1OC	Yes
CC(=O)OC1COC(N2C(=O)C(=O)c3cc(Br)ccc32)C(OC(C)=O)C1OC(C)=O (stereo not drawn)	Yes
Oc1cc2ccccc2c(-c2c(O)c(O)cc3ccccc23)c1O	No
O=C(c1ccc(Cl)cc1)N(C(=S)OCc1ccccn1)c1ccccc1	Yes
CC1=CC(=O)CC(C)(C)C1/C=C/C(C)=C/C=C/C(C)=C/C=C/C=C(C)/C=C/C=C(C)/C=C/C1=C(C)CC(O)CC1(C)C (stereo not drawn)	Yes
CCOc1cccc(-c2nc(N)nc(Nc3ccccc3SSc3ccccc3Nc3nc(N)nc(-c4cccc(OCC)c4)n3)n2)c1	Yes
CC1OC(OC2C(OC3CCC4(C)C(CCC5(C)C4CC=C4C6CC(C)(C)CCC6(C(=O)O)CCC45C)C3(C)CO)OCC(O)C2O)C(O)C(O)C1O (stereo not drawn)	Yes
C[C@@H](Oc1ccc(C(=O)NS(=O)(=O)C(C)(C)C)cc1C(F)(F)F)c1ccc(Oc2ccccc2)cn1	No
COC(=O)C(Cc1nc2ccccc2nc1C)/C(=N\NC(N)=O)C(=O)Nc1cccc([N+](=O)[O-])c1 (stereo not drawn)	Yes
Clc1ccc(OCc2nnc3n2N=C(c2ccc(Cl)cc2Cl)CS3)cc1	Yes
CC(=O)NC1C(OCc2ccccc2)OC(COC(=O)CCCCCCCCCCNc2ccc([N+](=O)[O-])c3[nH]c4ccccc4c(=O)c23)C(O)C1OC(C)C(=O)NC(C)C(=O)NC(CCC(N)=O)C(=O)OCc1ccccc1 (stereo not drawn)	Yes
Cc1ccccc1-n1c2nc(=O)n(C)c(=O)c-2nc2ccccc21	Yes
COc1ccc(-n2ccnc2-c2cc(OC)c(OC)c(OC)c2)cc1	No
COc1ccc(Nc2cc(C)nc(NCCCNc3ccnc4cc(Cl)ccc34)n2)cc1	No
CSC12c3cc(C)n(-c4ccccc4)c3CC(C)(C)CN1C(=O)C2Oc1ccccc1 (stereo not drawn)	Yes
CCN1Cc2nc3sc(C)c(C)c3c(=O)n2C=C1C	Yes
O=C1C=C(OCCCCl)C(=O)c2c(O)ccc(O)c21	No
COc1cc(C2C(Cl)C(=O)N2NC(=O)c2ccc(N)cc2)cc(Br)c1O (stereo not drawn)	Yes
CC(C)(C)CC(N)=O	Yes
CC(=O)Nc1ccc(COC(O)CN2CCCCC2)cc1[N+](=O)[O-] (stereo not drawn)	Yes
COc1ccc(C(=O)C(c2ccc(OCc3ccccc3)cc2)c2ccc(OCc3ccccc3)cc2)cc1	Yes
O=C(O)CCCc1ccc2ccccc2c1	Yes
CCOC(=O)C(NC(=O)c1ccccc1)(Nc1ccc(Cl)cc1C(F)(F)F)C(F)(F)F (stereo not drawn)	Yes
